target: bee venom phospholipase A2 (Apis mellifera, UniProt P00630); assay type: biochemical
Sequence (P00630 34-167 limits assumed): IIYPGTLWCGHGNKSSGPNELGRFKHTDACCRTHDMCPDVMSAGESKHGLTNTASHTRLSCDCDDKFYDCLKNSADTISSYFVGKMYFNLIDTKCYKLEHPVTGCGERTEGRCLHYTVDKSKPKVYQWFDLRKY

{"columns": ["MOLECULE", "IC50, Phospholipase A2 Assay"],
 "data": [
  ["CCCCCCCCCCCCC(OC(C)=O)C1=C(C)C(=O)OC1 (stereo not shown)", "inactive at 3 μM"],
  ["CCCCCCCCCCCCC(O)C1=CC(=O)OC1C (single isomer, unassigned)", "inactive at 3 μM"],
  ["CCCCCCCCCCCC(=O)OCC1=C(c2ccccc2)C(=O)OC1C (stereo not shown)", "inactive at 3 μM"],
  ["CCCCCCCCCCCCC(OC(C)=O)C1=CC(=O)OC1C (stereo not shown)", "inactive at 3 μM"]
]}
